# System: NOMO-1
# Method Summary: cells
# Measurement Context: Homo sapiens, NOMO-1, 96 h
# Description: Cytotoxicity against human NOMO-1 cells assessed as reduction in cell viability after 4 days by CellTiter-Blue assay
Parameter: pIC50
Keep in mind that pIC50 stands for -log10 of concentration in molar terms.

Short answer for CC(C)(C)c1cc(NC(=O)Nc2ccc3oc(C(=O)c4cc5cc(OC(=O)N6CCC(N7CCCCC7)CC6)ccc5[nH]4)cc3c2)no1.Cl : pIC50 was 8.92

---

# Method Summary: physchem
# Measurement Context: water
# Description: Solubility of compound in water at 10 mg after 3 hrs by UV-spectra analysis
Parameter: solubility at 3 h (µg/mL)
Report as a plain number; the unit µg/mL is understood.

Entry CC(C)(C)c1cc(NC(=O)Nc2ccc3oc(C(=O)c4cc5cc(OC(=O)N6CCC(N7CCCCC7)CC6)ccc5[nH]4)cc3c2)no1.Cl ; solubility at 3 h = 230

---

# System: ML-2
# Method Summary: cells
# Measurement Context: Homo sapiens, ML-2, 96 h
# Description: Cytotoxicity against human ML-2 cells assessed as reduction in cell viability after 4 days by CellTiter-Blue assay
Parameter: IC50 (nM)
Form entry: value (nM) — number only.

The value of IC50 measured for the compound CC(C)(C)c1cc(NC(=O)Nc2ccc3oc(C(=O)c4cc5cc(OC(=O)N6CCC(N7CCCCC7)CC6)ccc5[nH]4)cc3c2)no1.Cl turned out to be 1.49

---

# Tested Target: Mitogen-activated protein kinase kinase kinase 20 (Homo sapiens, UniProt Q9NYL2)
# Sequence (Q9NYL2 whole entry): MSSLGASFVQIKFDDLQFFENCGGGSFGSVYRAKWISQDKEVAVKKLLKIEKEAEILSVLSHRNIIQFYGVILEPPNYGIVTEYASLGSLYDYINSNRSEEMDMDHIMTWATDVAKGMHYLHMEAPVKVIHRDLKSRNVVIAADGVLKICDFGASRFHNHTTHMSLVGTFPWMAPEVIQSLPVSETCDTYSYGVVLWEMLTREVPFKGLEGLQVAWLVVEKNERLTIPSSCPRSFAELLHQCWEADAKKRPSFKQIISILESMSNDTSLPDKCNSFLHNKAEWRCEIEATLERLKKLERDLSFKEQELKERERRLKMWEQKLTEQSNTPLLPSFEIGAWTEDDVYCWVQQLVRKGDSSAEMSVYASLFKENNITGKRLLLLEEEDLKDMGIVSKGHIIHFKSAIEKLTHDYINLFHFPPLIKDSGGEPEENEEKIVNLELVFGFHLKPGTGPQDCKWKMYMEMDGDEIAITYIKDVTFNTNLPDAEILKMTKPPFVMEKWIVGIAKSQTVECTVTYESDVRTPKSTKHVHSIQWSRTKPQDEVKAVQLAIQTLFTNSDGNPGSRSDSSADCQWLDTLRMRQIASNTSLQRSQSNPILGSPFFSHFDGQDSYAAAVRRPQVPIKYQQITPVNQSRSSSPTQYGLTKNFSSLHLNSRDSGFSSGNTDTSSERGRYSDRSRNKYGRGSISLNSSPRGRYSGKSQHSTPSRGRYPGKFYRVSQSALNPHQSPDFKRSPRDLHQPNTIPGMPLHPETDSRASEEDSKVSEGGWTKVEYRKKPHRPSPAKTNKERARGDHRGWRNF
# Method Summary: Inhibition of human ZAK incubated for 30 mins by Kinobead based assay
Parameter: EC50 (µM)
Write the answer as a number in µM, unit excluded.

For reference, reported EC50 for CC(C)(C)c1cc(NC(=O)Nc2ccc3oc(C(=O)c4cc5cc(O)ccc5[nH]4)cc3c2)no1 stands at 3.26

---

Parameter: Kd
# do not omit the unit; it follows the number

Item CC(C)(C)c1cc(NC(=O)Nc2ccc3oc(C(=O)c4cc5cc(O)ccc5[nH]4)cc3c2)no1 was tested on Receptor-type tyrosine-protein kinase FLT3 (Homo sapiens, UniProt P36888, F691L/ITD); the reported Kd is 115 nM

---

# Tested Target: Cyclin-dependent kinase 16 (Homo sapiens)
# Sequence (Q00536 whole entry): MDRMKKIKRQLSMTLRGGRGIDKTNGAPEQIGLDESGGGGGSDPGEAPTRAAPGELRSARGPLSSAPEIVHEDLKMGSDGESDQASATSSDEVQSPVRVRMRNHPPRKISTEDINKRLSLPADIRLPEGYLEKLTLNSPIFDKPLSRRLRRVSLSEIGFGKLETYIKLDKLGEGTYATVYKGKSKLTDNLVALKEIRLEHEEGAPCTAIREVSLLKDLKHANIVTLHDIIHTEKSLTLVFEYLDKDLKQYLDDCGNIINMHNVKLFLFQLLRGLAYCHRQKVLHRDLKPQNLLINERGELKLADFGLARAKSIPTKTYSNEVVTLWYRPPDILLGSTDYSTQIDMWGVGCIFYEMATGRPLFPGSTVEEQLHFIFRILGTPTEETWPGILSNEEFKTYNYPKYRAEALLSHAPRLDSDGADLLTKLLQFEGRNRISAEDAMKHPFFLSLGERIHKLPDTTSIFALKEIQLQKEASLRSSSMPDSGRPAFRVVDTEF
# Method Summary: Inhibition of human CDK16 incubated for 30 mins by Kinobead based assay
Parameter: EC50 (nM)
Your answer is read as nM, so omit the unit and give the number.

Per the record, CC(C)(C)c1cc(NC(=O)Nc2ccc3oc(C(=O)c4cc5cc(O)ccc5[nH]4)cc3c2)no1 has EC50 of 1770

---

# Tested Target: Receptor-type tyrosine-protein kinase FLT3 (Homo sapiens, UniProt P36888, ITD)
# Sequence (P36888 whole entry, looked up, change not shown): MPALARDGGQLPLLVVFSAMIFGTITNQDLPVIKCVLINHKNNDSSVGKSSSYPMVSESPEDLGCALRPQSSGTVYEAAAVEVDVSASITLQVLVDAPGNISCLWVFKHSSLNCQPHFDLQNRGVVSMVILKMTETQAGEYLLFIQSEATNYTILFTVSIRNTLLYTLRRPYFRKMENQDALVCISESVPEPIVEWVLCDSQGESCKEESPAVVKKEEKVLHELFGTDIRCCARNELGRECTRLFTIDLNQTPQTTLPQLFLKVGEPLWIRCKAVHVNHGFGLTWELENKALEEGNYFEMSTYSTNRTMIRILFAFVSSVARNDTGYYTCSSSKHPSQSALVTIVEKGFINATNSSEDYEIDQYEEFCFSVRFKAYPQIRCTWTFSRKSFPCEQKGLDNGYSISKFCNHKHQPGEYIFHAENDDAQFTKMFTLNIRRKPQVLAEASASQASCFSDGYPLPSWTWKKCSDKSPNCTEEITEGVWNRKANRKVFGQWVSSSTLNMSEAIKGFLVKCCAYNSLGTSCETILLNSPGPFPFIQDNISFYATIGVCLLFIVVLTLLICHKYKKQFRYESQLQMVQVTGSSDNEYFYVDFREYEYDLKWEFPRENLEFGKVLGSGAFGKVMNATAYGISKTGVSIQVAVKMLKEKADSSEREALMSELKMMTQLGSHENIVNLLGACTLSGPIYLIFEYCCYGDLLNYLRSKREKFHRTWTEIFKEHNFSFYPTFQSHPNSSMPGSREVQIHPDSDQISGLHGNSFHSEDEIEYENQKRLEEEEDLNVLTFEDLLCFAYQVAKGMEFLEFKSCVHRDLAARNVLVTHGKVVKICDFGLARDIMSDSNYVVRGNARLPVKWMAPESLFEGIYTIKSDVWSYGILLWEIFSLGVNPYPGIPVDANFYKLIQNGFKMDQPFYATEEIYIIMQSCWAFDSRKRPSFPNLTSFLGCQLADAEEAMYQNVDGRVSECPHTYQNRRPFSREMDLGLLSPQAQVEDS
Parameter: IC50 (nM)
Write the value in nM as a bare number.

// returns IC50 for CC(C)(C)c1cc(NC(=O)Nc2ccc3oc(C(=O)c4cc5cc(O)ccc5[nH]4)cc3c2)no1 with Receptor-type tyrosine-protein kinase FLT3 (Homo sapiens, UniProt P36888, ITD); value = 2.3

---

# System: IM-9
# Method Summary: cells
# Measurement Context: Homo sapiens, IM-9, 96 h
# Description: Cytotoxicity against human IM-9 cells assessed as reduction in cell viability after 4 days by CellTiter-Blue assay
Parameter: IC50 (nM)
API: value field is a number in nM; no unit string.

IC50 of CC(C)(C)c1cc(NC(=O)Nc2ccc3oc(C(=O)c4cc5cc(OC(=O)N6CCC(N7CCCCC7)CC6)ccc5[nH]4)cc3c2)no1.Cl , assay on IM-9, is 2.25

---

# System: HL-60
# Method Summary: cells
# Measurement Context: Homo sapiens, HL-60, 96 h
# Description: Cytotoxicity against human HL-60 cells assessed as reduction in cell viability after 4 days by CellTiter-Blue assay
Parameter: IC50 (nM)
// return numeric value only (unit: nM, not printed)

Field IC50 (entry CC(C)(C)c1cc(NC(=O)Nc2ccc3oc(C(=O)c4cc5cc(OC(=O)N6CCC(N7CCCCC7)CC6)ccc5[nH]4)cc3c2)no1.Cl ) reads 2.35

---

# Method Summary: cells
# Measurement Context: Homo sapiens, PL-21, 96 h
# Description: Cytotoxicity against human PL21 cells assessed as reduction in cell viability after 4 days by CellTiter-Blue assay
Parameter: pIC50
Expect pIC50 as a plain number equal to -log10 of the molar concentration.

For record CC(C)(C)c1cc(NC(=O)Nc2ccc3oc(C(=O)c4cc5cc(OC(=O)N6CCC(N7CCCCC7)CC6)ccc5[nH]4)cc3c2)no1.Cl the listed pIC50 is 8.88

---

# System: MV4-11
# Method Summary: cells
# Measurement Context: Homo sapiens, MV4-11, 96 h
# Description: Cytotoxicity against human MV4-11 cells assessed as reduction in cell viability after 4 days by CellTiter-Blue assay
Parameter: IC50 (pM)
The response must be a number in pM with no trailing unit.

The recorded IC50 for CC(C)(C)c1cc(NC(=O)Nc2ccc3oc(C(=O)c4cc5cc(OC(=O)N6CCC(N7CCCCC7)CC6)ccc5[nH]4)cc3c2)no1.Cl is 0.9

---

# Tested Target: Mitogen-activated protein kinase kinase kinase kinase 4 (Homo sapiens)
# Sequence (O95819 whole entry): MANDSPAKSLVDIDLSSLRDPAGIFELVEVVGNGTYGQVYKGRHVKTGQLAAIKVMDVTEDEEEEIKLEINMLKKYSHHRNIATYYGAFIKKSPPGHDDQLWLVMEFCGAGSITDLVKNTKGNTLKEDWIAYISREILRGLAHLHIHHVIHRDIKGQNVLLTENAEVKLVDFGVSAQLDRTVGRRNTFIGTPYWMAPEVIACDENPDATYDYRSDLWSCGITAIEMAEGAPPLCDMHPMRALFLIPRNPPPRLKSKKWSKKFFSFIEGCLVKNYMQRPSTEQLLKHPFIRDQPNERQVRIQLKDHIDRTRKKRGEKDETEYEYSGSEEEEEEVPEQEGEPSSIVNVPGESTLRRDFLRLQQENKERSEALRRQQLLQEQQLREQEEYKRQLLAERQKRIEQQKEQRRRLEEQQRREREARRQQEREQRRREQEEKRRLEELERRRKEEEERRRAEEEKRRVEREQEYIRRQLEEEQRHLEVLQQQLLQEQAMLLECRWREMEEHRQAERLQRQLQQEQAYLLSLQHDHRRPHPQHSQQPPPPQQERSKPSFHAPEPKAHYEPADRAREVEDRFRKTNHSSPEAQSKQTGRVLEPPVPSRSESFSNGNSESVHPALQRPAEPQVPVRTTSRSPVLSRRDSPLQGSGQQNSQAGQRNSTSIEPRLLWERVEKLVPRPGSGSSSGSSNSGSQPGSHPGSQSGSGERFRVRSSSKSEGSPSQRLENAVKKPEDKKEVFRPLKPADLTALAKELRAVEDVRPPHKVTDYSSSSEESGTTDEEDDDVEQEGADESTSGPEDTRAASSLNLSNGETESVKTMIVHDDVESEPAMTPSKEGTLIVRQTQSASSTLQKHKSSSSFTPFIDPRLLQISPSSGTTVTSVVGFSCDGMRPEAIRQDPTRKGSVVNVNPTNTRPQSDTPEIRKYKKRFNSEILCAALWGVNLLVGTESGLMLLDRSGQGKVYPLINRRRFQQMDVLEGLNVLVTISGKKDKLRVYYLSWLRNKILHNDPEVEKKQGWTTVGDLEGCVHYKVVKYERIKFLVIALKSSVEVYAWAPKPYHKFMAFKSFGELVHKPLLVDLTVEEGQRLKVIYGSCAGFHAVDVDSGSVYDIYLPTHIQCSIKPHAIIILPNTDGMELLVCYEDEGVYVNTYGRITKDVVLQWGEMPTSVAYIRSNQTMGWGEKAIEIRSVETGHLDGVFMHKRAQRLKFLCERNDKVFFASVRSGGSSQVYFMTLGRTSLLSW
# Method Summary: Inhibition of human MAP4K4 incubated for 30 mins by Kinobead based assay
Parameter: EC50 (µM)
Report as a plain number; the unit µM is understood.

Recorded EC50 (compound CC(C)(C)c1cc(NC(=O)Nc2ccc3oc(C(=O)c4cc5cc(O)ccc5[nH]4)cc3c2)no1 ): 3.86

---

# System: MV4-11
# Method Summary: cells
# Measurement Context: Homo sapiens, MV4-11, 72 h
# Description: Cytotoxicity against human MV4-11 cells assessed as reduction in cell viability after 72 hrs by trypan blue dye exclusion method
Classify: Met when IC50 is strictly less than 20 nM; Not met when IC50 is not.

Please state whether IC50 is below 20 nM for CC(C)(C)c1cc(NC(=O)Nc2cc3cc(C(=O)c4cc5cc(O)ccc5o4)[nH]c3cn2)no1
Not met

Is it true that IC50 reported for CC(C)(C)c1cc(NC(=O)Nc2ccc3[nH]c(C(=O)c4cc5cc(O)ccc5o4)cc3c2)no1 is less than 20 nM?
Met

Is IC50 of Cc1cccc2[nH]c(C(=O)c3cc4cccc(NC(=O)Nc5cc(C(C)(C)C)on5)c4[nH]3)cc12 strictly below 20 nM?
Not met

Does the reported IC50 of CC(C)(C)c1nnc(NC(=O)Nc2ccc3[nH]c(C(=O)c4cc5cc(O)ccc5[nH]4)cc3c2)s1 stay below 20 nM?
Met

Record CC(C)(C)c1cc(NC(=O)Nc2cnc3[nH]c(C(=O)c4cc5cc(O)ccc5[nH]4)cc3c2)no1 : is its IC50 strictly below 20 nM?
Not met

Please check: IC50 for Cc1cc(NC(=O)Nc2ccc3[nH]c(C(=O)c4cc5cc(O)ccc5[nH]4)cc3c2)no1 , strictly under 20 nM or not?
Not met

Confirm or reject: IC50 of Cc1cccc2[nH]c(C(=O)c3cc4c(NC(=O)Nc5cc(C(C)(C)C)on5)cccc4[nH]3)cc12 lies strictly below 20 nM
Not met

In the record for CC(C)(C)c1cc(NC(=O)Nc2ccc3[nH]c(C(=O)c4cc5cc(O)ccc5[nH]4)cc3c2)no1 , is IC50 less than 20 nM?
Met

Consider the molecule Cc1cccc2[nH]c(C(=O)c3cc4cc(NC(=O)Nc5cc(C(C)(C)C)on5)ccc4[nH]3)cc12 . Is its IC50 strictly less than 20 nM?
Met

Say whether its IC50 is strictly beneath 20 nM. Entry: Cc1cccc2[nH]c(C(=O)c3cc4ccc(NC(=O)Nc5cc(C(C)(C)C)on5)cc4[nH]3)cc12
Not met

---

# Tested Target: Discoidin domain-containing receptor 2 (Homo sapiens)
# Sequence (Q16832 whole entry, the tested form may be a part): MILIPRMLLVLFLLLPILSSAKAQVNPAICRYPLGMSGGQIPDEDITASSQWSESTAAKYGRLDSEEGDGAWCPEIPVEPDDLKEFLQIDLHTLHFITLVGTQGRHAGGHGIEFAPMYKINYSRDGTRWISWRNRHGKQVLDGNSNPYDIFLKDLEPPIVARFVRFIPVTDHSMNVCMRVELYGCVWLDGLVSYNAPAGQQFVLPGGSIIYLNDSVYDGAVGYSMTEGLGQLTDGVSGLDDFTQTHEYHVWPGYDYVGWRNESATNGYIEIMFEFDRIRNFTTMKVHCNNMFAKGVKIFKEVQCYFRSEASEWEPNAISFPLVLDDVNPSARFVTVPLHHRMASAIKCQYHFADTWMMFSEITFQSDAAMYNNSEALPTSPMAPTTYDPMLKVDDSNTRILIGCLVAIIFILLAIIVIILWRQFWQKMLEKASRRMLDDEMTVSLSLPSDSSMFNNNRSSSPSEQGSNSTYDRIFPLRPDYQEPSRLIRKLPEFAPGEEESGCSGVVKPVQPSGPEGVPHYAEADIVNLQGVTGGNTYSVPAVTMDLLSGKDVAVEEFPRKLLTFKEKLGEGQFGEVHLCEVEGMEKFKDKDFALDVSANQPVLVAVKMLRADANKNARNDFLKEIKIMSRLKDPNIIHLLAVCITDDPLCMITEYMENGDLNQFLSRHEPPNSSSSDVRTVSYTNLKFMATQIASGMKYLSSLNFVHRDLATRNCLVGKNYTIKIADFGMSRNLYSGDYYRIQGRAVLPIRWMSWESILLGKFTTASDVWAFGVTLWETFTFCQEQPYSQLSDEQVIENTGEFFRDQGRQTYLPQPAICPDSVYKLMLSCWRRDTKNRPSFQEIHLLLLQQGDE
# Method Summary: Inhibition of human DDR2 incubated for 30 mins by Kinobead based assay
Parameter: pEC50
Recall that pEC50 is obtained by taking minus log10 of the concentration measured in molar.

Short answer for CC(C)(C)c1cc(NC(=O)Nc2ccc3oc(C(=O)c4cc5cc(O)ccc5[nH]4)cc3c2)no1 : pEC50 was 5.60

---

# Tested Target: UniProt:P07949
# Method Summary: Inhibition of human RET incubated for 30 mins by Kinobead based assay
Parameter: pEC50
Expect pEC50 as a plain number equal to -log10 of the molar concentration.

For this compound ( CC(C)(C)c1cc(NC(=O)Nc2ccc3oc(C(=O)c4cc5cc(O)ccc5[nH]4)cc3c2)no1 ), measured pEC50 is 5.60

From: ChEMBL document CHEMBL4680233
